# assayed.target: T1, human VEGF (hVEGF) (human, UniProt P15692 181-395)
# T1 construct: also called VEGF-A
# T1 sequence: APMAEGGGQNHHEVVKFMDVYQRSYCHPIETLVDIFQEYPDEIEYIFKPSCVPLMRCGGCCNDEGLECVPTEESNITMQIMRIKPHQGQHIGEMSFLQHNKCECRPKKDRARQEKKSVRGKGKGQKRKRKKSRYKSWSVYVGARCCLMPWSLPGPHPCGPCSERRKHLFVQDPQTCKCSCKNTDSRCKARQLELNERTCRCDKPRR
# test.description: SPR single-cycle;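 also: fab variants injected over hVEGF immobilized on a CM5 chip (Biacore T200), threefold dilution series from 0.02 to 50 nM, kinetics fitted with a 1:1 Langmuir model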
measurement.kind: Kd (nM)
One number for each entry, in nM.

Known results for binders:
binder	units.text	Kd
G6.31 HC-T77E (Fab, name in Kabat numbering, V domains shown, Fab) VH: EVQLVESGGGLVQPGGSLRLSCAASGFTISDYWIHWVRQAPGKGLEWVAGITPAGGYTYYADSVKGRFTISADTSKNEAYLQMNSLRAEDTAVYYCARFVFFLPYAMDYWGQGTLVTVSS VL: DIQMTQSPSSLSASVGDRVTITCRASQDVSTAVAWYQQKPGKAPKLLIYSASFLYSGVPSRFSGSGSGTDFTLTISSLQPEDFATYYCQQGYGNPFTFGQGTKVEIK	nM	1.93
G6.31 HC-P41R (Fab, name in Kabat numbering, V domains shown, Fab) VH: EVQLVESGGGLVQPGGSLRLSCAASGFTISDYWIHWVRQARGKGLEWVAGITPAGGYTYYADSVKGRFTISADTSKNTAYLQMNSLRAEDTAVYYCARFVFFLPYAMDYWGQGTLVTVSS VL: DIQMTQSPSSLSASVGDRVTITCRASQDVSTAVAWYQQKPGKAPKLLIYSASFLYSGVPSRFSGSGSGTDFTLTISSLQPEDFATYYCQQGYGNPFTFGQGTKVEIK	nM	0.97
G6.31 HC-T68K (Fab, name in Kabat numbering, V domains shown, Fab) VH: EVQLVESGGGLVQPGGSLRLSCAASGFTISDYWIHWVRQAPGKGLEWVAGITPAGGYTYYADSVKGRFKISADTSKNTAYLQMNSLRAEDTAVYYCARFVFFLPYAMDYWGQGTLVTVSS VL: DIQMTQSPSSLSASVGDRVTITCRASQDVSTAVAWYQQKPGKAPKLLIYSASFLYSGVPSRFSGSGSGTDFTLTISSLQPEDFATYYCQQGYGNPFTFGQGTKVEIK	nM	1.29

Quick request: Kd for each listed item, please.
1. G6.31 HC-Q81E (Fab, name in Kabat numbering, V domains shown, Fab) VH: EVQLVESGGGLVQPGGSLRLSCAASGFTISDYWIHWVRQAPGKGLEWVAGITPAGGYTYYADSVKGRFTISADTSKNTAYLEMNSLRAEDTAVYYCARFVFFLPYAMDYWGQGTLVTVSS VL: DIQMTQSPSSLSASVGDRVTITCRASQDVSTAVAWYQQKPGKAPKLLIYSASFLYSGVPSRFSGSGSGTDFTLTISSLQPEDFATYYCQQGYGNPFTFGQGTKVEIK
2. G6.31 LC-S50R (Fab, V domains shown, Fab) VH: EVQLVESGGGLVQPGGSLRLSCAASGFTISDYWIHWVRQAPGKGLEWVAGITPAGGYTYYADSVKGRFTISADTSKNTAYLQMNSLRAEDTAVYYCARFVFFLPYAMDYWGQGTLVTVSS VL: DIQMTQSPSSLSASVGDRVTITCRASQDVSTAVAWYQQKPGKAPKLLIYRASFLYSGVPSRFSGSGSGTDFTLTISSLQPEDFATYYCQQGYGNPFTFGQGTKVEIK

2.2
1.89
